Organism: Rattus norvegicus
Test: Open TG-GATES - Regimen: Daily Repeat
Format: toxicity, organism-based, Sprague-Dawley
Set-up: regimen Daily Repeat, gender Male, age 6 weeks
Conditions: in vivo, po, 0 mg/kg, […], tissue Blood, route gavage, dose level Control, time 28 day

{"Compound": "CCc1oc2ccccc2c1C(=O)c1cc(Br)c(O)c(Br)c1", "Ht [%]": 46.5}
{"Compound": "CC(C)N(CCC(C(N)=O)(c1ccccc1)c1ccccn1)C(C)C (stereo unspecified) [DISOPYRAMIDE]", "Ht [%]": 42.9}
{"Compound": "CN(C)CCC=C1c2ccccc2COc2ccccc21 [DOXEPIN]", "Ht [%]": 41.9}
{"Compound": "CN(C)C(=N)N=C(N)N", "Ht [%]": 43.2}
{"Compound": "CC1=C(CC(=O)O)c2cc(F)ccc2/C1=C\\c1ccc([S+](C)[O-])cc1 (stereo unspecified)", "Ht [%]": 46.1}
{"Compound": "CC[C@H]1[C@@H]2C[C@H]3[C@@H]4N(C)c5ccccc5[C@]45C[C@@H]([C@@H]2[C@H]5O)N3[C@@H]1O", "Ht [%]": 45.3}
{"Compound": "CCCCc1oc2ccccc2c1C(=O)c1cc(I)c(OCCN(CC)CC)c(I)c1", "Ht [%]": 43.9}
{"Compound": "OCCOCCN1CCN(C(c2ccccc2)c2ccc(Cl)cc2)CC1 (stereo unspecified) [HYDROXYZINE]", "Ht [%]": 43.4}
{"Compound": "O=NN(CCCl)C(=O)NC1CCCCC1", "Ht [%]": 44.9}
{"Compound": "ClC(Cl)(Cl)Cl [CARBON TETRACHLORIDE]", "Ht [%]": 43.7}
{"Compound": "CCC1(c2ccccc2)C(=O)NC(=O)NC1=O", "Ht [%]": 44.6}
